# System Tested: Phosphodiesterase 3 (Homo sapiens, UniProt Q14432+Q13370)
# Assay Explanation: Inhibition of phosphodiesterase fraction III in anesthetized open chest dogs
# Format: functional, Canis lupus familiaris
# Reported Conditions: target entry is the homologue from another species
Measurement Type: log10(IC50) (log10 of the value in µM)
Note the log scale: values are log10 of IC50 expressed in µM.

Reference set, count: 8
COc1cc2c(C)nc(O)c(C3CCCC3)c2cc1OC	2.11
COc1cc2c(C)nc(O)c(C)c2cc1OC	1.00
Br.COc1cc2c(C)nc(O)c(Br)c2cc1OC	1.00
CCCc1c(O)nc(C)c2cc(OC)c(OC)cc12	0.70
COC(=O)CCc1c(O)nc(C)c2cc(OC)c(OC)cc12	1.54
COc1ccc2c(C)nc(O)cc2c1	2.20
COc1cc2c(C)nc(O)c(Cl)c2cc1OC	1.79
CCc1c(O)nc(C)c2cc(OC)c(OC)cc12	0.30

Hi there! I need log10(IC50) for each item below, if you can.
1. CCOc1cc2c(C)nc(O)c(CC)c2cc1OC
2. COc1cc2c(C)nc(O)c(C(C)C)c2cc1OC

**A:**
0.30
0.85

Hi there! I need log10(IC50) for each item below, if you can.
1. COc1cc(OC)c2c(C)nc(O)cc2c1
2. CCCCOc1cc2c(C)nc(O)cc2cc1OC

**A:**
1.90
1.57

* * *

# Test system: Canis familiaris
# Assay Explanation: Percent change in heart rate (HR) in anesthetized open chest dogs after a iv dose of 1.875 mg/kg
# Format: functional, Canis lupus familiaris
I'd appreciate it if you could supply Change values for the items below.
One number for each entry, in %.

COc1cc2c(C)nc(O)c(CC(C)C)c2cc1OC	10
COc1cc2c(C)nc(O)c(CCC(=O)OC(C)C)c2cc1OC	3
CNC(=O)CCc1c(O)nc(C)c2cc(OC)c(OC)cc12	7
COC(=O)CCc1c(O)ncc2cc3c(cc12)OCO3	6
COC(=O)CCc1c(O)nc(C(C)C)c2cc(OC)c(OC)cc12	7

Hi there! I need Change for each item below, if you can.
1. Cc1nc(O)c(Cl)c2cc3c(cc12)OCO3
2. COc1cc2c(C)nc(O)c(C3CCCC3)c2cc1OC
3. COC(=O)c1c(O)nc(C)c2cc(OC)c(OC)cc12
4. COc1cc2c(C)nc(O)c(CCC(=O)N(C)C)c2cc1OC
5. COc1ccc2c(C)nc(O)cc2c1OC
6. COc1cc2c(C)nc(O)c(CCC(=O)O)c2cc1OC
7. CNC(=O)c1c(O)nc(C)c2cc(OC)c(OC)cc12
8. CCOc1cc2cnc(O)cc2cc1OC

**A:**
1. 28
2. 5
3. 6
4. -2
5. 3
6. 5
7. 0
8. 7

**Q:** Any idea what its Change is? The compound is COc1cc2c(C)nc(O)c(CCC(N)=O)c2cc1OC
**A:** 11

* * *

# Tested on: Canis familiaris
# Assay Explanation: Change in left ventricular pressure of anaesthetized, open chest dogs following 0.875 mg/kg i.v. administration.
# Type: functional, Canis lupus familiaris, Heart left ventricle
# Reported Conditions: route intravenous
I'd appreciate it if you could supply Increase values for the items below.

Reference set, count: 5
Br.COc1cc2c(C)nc(O)c(Br)c2cc1OC	25%
CCc1nc(O)c(CCC(=O)OC)c2cc(OC)c(OC)cc12	33%
COC(=O)CCc1c(O)nc(C)c2c(OC)c(OC)c(OC)cc12	20%
COC(=O)CCc1c(O)ncc2cc(OC)c(OC)cc12	24%
CCOc1cc2cc(O)nc(C)c2cc1OCC	42%

Hi there! I need Increase for each item below, if you can.
1. COc1ccc2cc(O)nc(C)c2c1OC
2. COC(=O)CCc1c(O)nc(C)c2cc3c(cc12)OCO3
3. CCOc1cc2c(C)nc(O)c(CC)c2cc1OC
4. COc1ccc2cc(O)nc(C)c2c1
5. CCOC(=O)CCc1c(O)nc(C)c2cc(OC)c(OC)cc12
6. COc1cc(OC)c2c(C)nc(O)cc2c1
7. CCCc1c(O)nc(C)c2cc(OC)c(OC)cc12
8. COC(=O)Cc1c(O)nc(C)c2cc(OC)c(OC)cc12

**A:**
51%
118%
6%
87%
20%
62%
55%
28%

The reported numbers originate from ChEMBL document CHEMBL1124262.
